- test-target: FLT3-ITD Ba/F3 cells (Homo sapiens, UniProt P36888, cells depend on it, form not given)
- measurement-protocol: Growth inhibitory activity against Ba/F3 cell line
- Type: cell-based
- study-conditions: Ba/F3 expressing FLT3-ITD; 72 hours; cell titer glo; read-out: IC50 (uM) FLT3-ITD
Where a name gives a salt, the structure may show the parent alone.
Catalogue of GI50 readings, one per entry.
Just the number please, in µM, no unit attached.

Briefly, GI50 measured for COCCn1cc(C#Cc2cc(NC(N)=O)c(C(=O)N[C@H]3CCCCNC3)s2)cn1 [Example 45, trifluoroacetate] : 0.038

Briefly, GI50 measured for Cc1ccc(C#Cc2cc(NC(N)=O)c(C(=O)N[C@H]3CCCNC3)s2)cc1 : 0.005

Briefly, GI50 measured for CCn1cc(C#Cc2cc(NC(N)=O)c(C(=O)N[C@H]3CCCCNC3)s2)cn1 : 0.01

Briefly, GI50 measured for NC(=O)Nc1cc(CCc2cccc(F)c2)sc1C(=O)N[C@H]1CCCNC1 : 0.359

Briefly, GI50 measured for Cn1cc(C#Cc2cc(NC(N)=O)c(C(=O)N[C@H]3CCCNC3)s2)cn1 : 0.028

Briefly, GI50 measured for CC(C)n1cc(C#Cc2cc(NC(N)=O)c(C(=O)N[C@H]3CCCCNC3)s2)cn1 [Example 44, trifluoroacetate] : 0.006

Next:
Briefly, GI50 measured for NC(=O)Nc1cc(C#Cc2ccc(F)nc2)sc1C(=O)N[C@H]1CCCNC1 : 0.002

Briefly, GI50 measured for NC(=O)Nc1cc(CCc2cccc(F)c2)sc1C(=O)N[C@H]1CCCCNC1 : 1.93

Briefly, GI50 measured for NC(=O)Nc1cc(C#Cc2ccc(Cl)cc2)sc1C(=O)N[C@H]1CCCNC1 : 0.001

Briefly, GI50 measured for COC(=O)c1ccc(C#Cc2cc(NC(N)=O)c(C(=O)N[C@H]3CCCNC3)s2)cc1 [Example 18, trifluoroacetate] : 0.003

Briefly, GI50 measured for NC(=O)Nc1cc(C#Cc2ccncc2)sc1C(=O)N[C@H]1CCCNC1 : 0.016

Briefly, GI50 measured for Cn1cc(C#Cc2cc(NC(N)=O)c(C(=O)NC3CCNC3)s2)cn1 (centres unmarked) [Example 39, trifluoroacetate] : 3.73
